Consider the following molecules; for each one, report its EC50.
- Tested on: MiaPaca 2 cell line
- Assay protocol: ApoTox-Glo Triplex Assay (viability, citotoxicity, apoptosis)
- Assay type: cell-based
- Conditions used: Homo sapiens, MIA PaCa-2; MiaPaca_2, 72 hours of treatment; read-out: ED50 Viability

Asked: Form: Entry = CC(C)=CCc1c(O)cc(O)c(C=O)c1C(=O)c1c(O)cc(C)cc1O | System = MiaPaca 2 cell line | EC50 = ____
Given back: 17.3 µM

Asked: Also Cc1cc(O)c(C(=O)c2c(C=O)c(O)cc3c2C(=O)CC(C)(C)O3)c(O)c1 , if possible.
Given back: > 50 µM

Asked: Then COc1cc(O)c(C=O)c(C(=O)c2c(O)cc(C)c(Cl)c2O)c1CC=C(C)C ?
Given back: 14.5 µM

Asked: Next: COc1cc(O)c(C=O)c(C(=O)c2c(O)cc(C)cc2O)c1CC=C(C)C
Given back: > 50 µM
